The origin of these recorded values is patent US20220046923A1.

System: Amaranthus palmeri (AMAPA)
PROTOCOL TEXT: Post-emergence efficacy, glasshouse spray test
Format: in vivo
MEASUREMENT PARAMETERS: Amaranthus palmeri, post-emergence, 312 h; application rate 1000 g/Ha; evaluated after 13 days; read-out: Control of weed species AMAPA after post-emergence application (100=total damage to plant; 0=no damage to plant)
Examples of compounds with documented pest or weed control at 1000 g/ha follow.

| COMPOUND | TARGET DESC | pest or weed control at 1000 g/ha / % |
| --- | --- | --- |
| O=S(=O)([O-])CC[n+]1ccc2c(F)cccc2n1 [Compound A81] | Amaranthus palmeri (AMAPA) | 40 |
| COc1c[n+](CCS(=O)(=O)[O-])nc2ccccc12 [Compound A38] | Amaranthus palmeri (AMAPA) | 20 |
| O=S(=O)([O-])OCC[n+]1nc2ccccc2cc1Cl [Compound A111] | Amaranthus palmeri (AMAPA) | 0 |
| COC(=O)C[n+]1cc(C)c2cc(C)ccc2n1 [Compound A9] | Amaranthus palmeri (AMAPA) | 10 |
| COC(=O)CC[n+]1cc(C)c2ccccc2n1 [Compound A63] | Amaranthus palmeri (AMAPA) | 40 |
| COP(=O)([O-])CCC[n+]1ccc2ccccc2n1 [Compound A72] | Amaranthus palmeri (AMAPA) | 70 |
| Cc1c[n+](CCS(=O)(=O)[O-])nc2ccccc12 [Compound A11] | Amaranthus palmeri (AMAPA) | 100 |

###

System: Eleusine indica (ELEIN)
PROTOCOL TEXT: Post-emergence efficacy, glasshouse spray test
Format: in vivo
MEASUREMENT PARAMETERS: Eleusine indica, post-emergence, 312 h; application rate 500 g/Ha; evaluated after 13 days; read-out: Control of weed species ELEIN after post-emergence application (100=total damage to plant; 0=no damage to plant)
MEASURED ATTRIBUTE: pest or weed control at 500 g/ha (%)

| COMPOUND | TARGET DESC | OBSERVED |
| --- | --- | --- |
| CN(C)C(=O)c1ccc2n[n+](CCS(=O)(=O)[O-])ccc2c1 | Eleusine indica (ELEIN) | 80 |
| Cc1cccc2n[n+](CCS(=O)(=O)[O-])ccc12 | Eleusine indica (ELEIN) | 70 |
| O=S(=O)([O-])CC[n+]1ccc2cc(-c3ccccc3)ccc2n1 | Eleusine indica (ELEIN) | 40 |
| O=S(=O)([O-])CC[n+]1ccc2cc(C(F)(F)F)ccc2n1 | Eleusine indica (ELEIN) | 20 |
| COC(=O)c1cccc2cc[n+](CCS(=O)(=O)[O-])nc12 | Eleusine indica (ELEIN) | 10 |
| COC(=O)C(C)[n+]1ccc2ccccc2n1 (stereo not drawn) | Eleusine indica (ELEIN) | 60 |
| N#Cc1cccc2cc[n+](CCS(=O)(=O)[O-])nc12 | Eleusine indica (ELEIN) | 20 |
| C[C@@H](CNS(=O)(=O)[O-])[n+]1ccc2ccccc2n1 | Eleusine indica (ELEIN) | 20 |
| COC(=O)c1ccc2cc[n+](CCS(=O)(=O)[O-])nc2c1 | Eleusine indica (ELEIN) | 30 |
| CCOP(=O)(O)CC[n+]1ccc2ccccc2n1 | Eleusine indica (ELEIN) | 30 |
| CC(C)(C[n+]1ccc2ccccc2n1)C(=O)O [Compound A113, 2,2,2-trifluoroacetate] | Eleusine indica (ELEIN) | 30 |
| CN(C)C(=O)c1cccc2cc[n+](CCS(=O)(=O)[O-])nc12 | Eleusine indica (ELEIN) | 100 |
